# testDetails: ovarian cancer cell viability with rucaparib, profiling panel, oncology-focused library, rucaparib conditional (AID 1508598)
# conditionContext: patient-derived ovarian cancer cells, CellTiter-Glo viability, 144 h; at 0.313 µM; OCI-C5x cells; with rucaparib 10 µM; 100% = cells with rucaparib alone
Active and inactive are the calls of the source.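 The calls were made as follows: active = normalized viability below 100% at a tested concentration; inactive = the rest.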
Write down the outcome that applies. Available outcomes: Y (active), N (inactive)

- givenSmiles: "COc1c(C)c2c(c(O)c1C/C=C(\\C)CCC(=O)O)C(=O)OC2"
  qualitativeLabel: "N"
- givenSmiles: "Cc1cc(O)c2c(c1)C(=O)c1cccc(O)c1C2=O"
  qualitativeLabel: "N"

Problem: I'd appreciate the recorded outcome for CCCC(CCC)C(=O)O from this test.
Solution: N

Problem: Dear all, I need the recorded test outcome for O=C(NOCC1CC1)c1ccc(F)c(F)c1Nc1ccc(I)cc1Cl , thank you.
Solution: N

Problem: Hey, what did the test say about CC/C(=C(\c1ccccc1)c1ccc(OCCN(C)C)cc1)c1ccccc1 ?
Solution: N

Problem: // outcome(item) with item = CC(C)n1c(/C=C/[C@@H](O)C[C@@H](O)CC(=O)O)c(-c2ccc(F)cc2)c2ccccc21
Solution: Y

Problem: Look up the recorded call for Clc1ccc(Nc2nnc(Cc3ccncc3)c3ccccc23)cc1 in this test.
Solution: N

Problem: Status in this test for CNC(=O)c1ccccc1Sc1ccc2c(/C=C/c3ccccn3)n[nH]c2c1 ?
Solution: N

Problem: Could you please tell me the result logged for Nc1ncn([C@H]2C[C@H](O)[C@@H](CO)O2)c(=O)n1 in this assay?
Solution: Y

Problem: # outcome recorded in this test, key = COc1c(C)c2c(c(O)c1C/C=C(\C)CCC(=O)OCCN1CCOCC1)C(=O)OC2
Solution: N

// provenance: PubChem BioAssay
